# test_system: T1, wild type human CD47 (Acro Biosystems, cat. no. CD7-H5227) (human, UniProt Q08722 19-139)
# T1 construct: Bought protein used as SPR analyte; also called Human CD47 wt; wild-type CD47
# T1 sequence (Q08722 19-139 limits assumed): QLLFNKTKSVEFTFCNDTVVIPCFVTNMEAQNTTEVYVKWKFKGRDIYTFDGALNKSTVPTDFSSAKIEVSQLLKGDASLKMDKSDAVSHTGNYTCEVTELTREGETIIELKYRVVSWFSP
# experiment: SPR, IgG captured, CD47 in flow; exp 3;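 also: other target is a CD47 mutein carrying C33G, used to obtain true monovalent affinity, with kon and koff fitted from SPR binding curves and KD derived from both rates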
result_type: koff (s⁻¹)
Use s⁻¹ as the unit, but write only the number.

binder	koff, s⁻¹
108VH10.Mh / 108VL10.Me (antibody, V domains shown, 4D5-framework series; constant regions not restated for this series; also called VH10.Mh VL10.Me) VH: EVQLVESGGGLVQPGGSLRLSCAASGFTFSHHWIHWVRQAPGKGLEWVAMIDASDSETRLVQKFKDRFTISADTSKNTAYLQMNSLRAEDTAVYYCSRLGRYYFDYWGQGTLVTVSS VL: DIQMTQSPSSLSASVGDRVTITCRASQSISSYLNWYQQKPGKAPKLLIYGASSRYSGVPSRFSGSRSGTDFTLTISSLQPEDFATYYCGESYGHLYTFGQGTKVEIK	0.0066
108VH10 / 108VL10.M1 (antibody, V domains shown, 4D5-framework series; also called VH10 VL10.M1; straight-graft antibody) VH: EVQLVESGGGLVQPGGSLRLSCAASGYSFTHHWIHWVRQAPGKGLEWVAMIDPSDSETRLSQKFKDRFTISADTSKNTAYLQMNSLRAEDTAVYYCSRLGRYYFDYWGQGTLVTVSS VL: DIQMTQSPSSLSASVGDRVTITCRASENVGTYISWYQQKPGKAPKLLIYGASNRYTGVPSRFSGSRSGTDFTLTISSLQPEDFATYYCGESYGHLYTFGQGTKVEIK	0.0014

Alright, here's another binder for you.
Indicate its recorded koff; the binder in question is 108VH10.Mj / 108VL10.Me (antibody, V domains shown, 4D5-framework series; constant regions not restated for this series; also called VH10.Mj VL10.Me) VH: EVQLVESGGGLVQPGGSLRLSCAASGFTFSHHWIHWVRQAPGKGLEWVAMIDASDSETRLSQSFKDRFTISADTSKNTAYLQMNSLRAEDTAVYYCSRLGRYYFDYWGQGTLVTVSS VL: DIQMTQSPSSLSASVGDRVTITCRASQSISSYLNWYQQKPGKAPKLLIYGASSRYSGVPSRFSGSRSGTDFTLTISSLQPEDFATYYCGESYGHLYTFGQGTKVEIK 0.0035
